Experiment: Cytotoxicity against mouse splenocytes assessed as cell viability after 72 hrs by MTS assay
Assay type: cell-based
Settings: splenocyte
reported-property: Activity

Check out these entries, answers already filled in.
>  <smiles-code>
COc1cc2c(cc1OC)-c1cc3cc(C(F)(F)F)ccc3n1CC2

>  <endpoint-result>
Toxic

$$$$
>  <smiles-code>
FC(F)(F)c1ccc2c(c1)cc1n2CCc2ccccc2-1

>  <endpoint-result>
Non-toxic

$$$$
>  <smiles-code>
FC(F)(F)c1ccc2cc3n(c2c1)CCc1ccccc1-3

>  <endpoint-result>
Non-toxic

$$$$
>  <smiles-code>
COc1cc2c(cc1OC)-c1cc3ccc(C(F)(F)F)cc3n1CC2

>  <endpoint-result>
Non-toxic

$$$$
>  <smiles-code>
COc1cc2cc3n(c2cc1OC)CCc1ccccc1-3

>  <endpoint-result>
Toxic

$$$$

Identify measured Activity associated with "COc1cc2c(cc1OC)-c1cc3ccccc3n1CC2"
Toxic

Please indicate Activity recorded for "COc1cccc2cc3n(c12)CCc1ccccc1-3"
Toxic

Note down Activity recorded for "COc1cc2c(cc1OC)-c1cc3cc(OC)c(OC)cc3n1CC2"
Toxic

* * *

Assay: Cytotoxicity against mouse splenocytes assessed as cell viability after 48 hrs by MTS assay
Assay type: cell-based
Settings: splenocyte
reported-property: Activity

Solved cases (4 shown):
>  <smiles-code>
COc1cc2c(cc1OC)-c1cc3cc(C(F)(F)F)ccc3n1CC2

>  <Activity>
Toxic

$$$$
>  <smiles-code>
COc1cc2c(cc1OC)-c1cc3ccccc3n1CC2

>  <Activity>
Toxic

$$$$
>  <smiles-code>
COc1cccc2cc3n(c12)CCc1ccccc1-3

>  <Activity>
Toxic

$$$$
>  <smiles-code>
COc1cc2c(cc1OC)-c1cc3cc(OC)c(OC)cc3n1CC2

>  <Activity>
Toxic

$$$$

Return reported Activity. Input compound: "FC(F)(F)c1ccc2c(c1)cc1n2CCc2ccccc2-1"
Non-toxic

Give a short answer stating reported Activity for "FC(F)(F)c1ccc2cc3n(c2c1)CCc1ccccc1-3" .
Non-toxic

Give a short answer stating reported Activity for "COc1cc2cc3n(c2cc1OC)CCc1ccccc1-3" .
Toxic

Give reported Activity value for "COc1cc2c(cc1OC)-c1cc3ccc(C(F)(F)F)cc3n1CC2"
Non-toxic
